SYSTEM_UNDER_TEST: hP2X2/3H (Homo sapiens, UniProt P56373+Q9UBL9)
Construct: expressed in transfected cells; host or cells: e.g. HEK293 or 1321N1
Sequence (Q9UBL9 1-471): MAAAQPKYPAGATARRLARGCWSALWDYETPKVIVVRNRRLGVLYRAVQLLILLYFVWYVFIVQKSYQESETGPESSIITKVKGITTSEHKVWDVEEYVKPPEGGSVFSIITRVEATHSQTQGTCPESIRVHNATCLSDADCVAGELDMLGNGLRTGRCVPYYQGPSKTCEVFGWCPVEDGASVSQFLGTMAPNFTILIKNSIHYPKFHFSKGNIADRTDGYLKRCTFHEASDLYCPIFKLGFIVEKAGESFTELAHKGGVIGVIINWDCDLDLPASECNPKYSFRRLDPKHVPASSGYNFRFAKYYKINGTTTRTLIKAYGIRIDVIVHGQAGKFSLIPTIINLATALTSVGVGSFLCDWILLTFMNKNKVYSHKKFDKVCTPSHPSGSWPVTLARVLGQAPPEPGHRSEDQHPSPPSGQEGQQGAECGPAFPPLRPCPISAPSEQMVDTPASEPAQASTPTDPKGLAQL
Sequence (P56373 1-397): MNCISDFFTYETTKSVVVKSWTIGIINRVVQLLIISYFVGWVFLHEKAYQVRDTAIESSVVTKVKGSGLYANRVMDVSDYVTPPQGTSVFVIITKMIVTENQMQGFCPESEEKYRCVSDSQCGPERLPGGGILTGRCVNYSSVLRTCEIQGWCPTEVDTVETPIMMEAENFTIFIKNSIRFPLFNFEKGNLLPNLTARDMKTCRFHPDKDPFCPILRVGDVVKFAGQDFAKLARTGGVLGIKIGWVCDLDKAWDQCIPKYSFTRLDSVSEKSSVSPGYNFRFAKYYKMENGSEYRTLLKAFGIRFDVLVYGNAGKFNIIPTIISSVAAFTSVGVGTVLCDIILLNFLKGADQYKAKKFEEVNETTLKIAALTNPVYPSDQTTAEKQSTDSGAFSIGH
TEST_NAME: Calcium uptake assay (P2X antagonist assay), P2X2/3 heteromer
Format: cell-based
STATED_CONDITIONS: calcium uptake assay, hP2X2/3H; read-out: IC50 hP2X2/3H (nM), Ca Influx
REPORTED_METRIC: IC50

// worked examples, IC50 included
INSERT INTO measurements (compound, reported_metric, value_reported) VALUES
  ('Cc1ccc(-c2cc(C(=O)NCc3ccc(C)nc3)cc(C(=O)N3[C@H](C)CC[C@H]3C)c2)cc1 [Compound 195]', 'IC50', '< 100 nM'),
  ('Cc1ccc(-c2cc(C(=O)NCc3ccc(C)nc3)cc(C(=O)N(C)C)c2)cc1 [Compound 166]', 'IC50', '100 to 500 nM'),
  ('Cc1ccc(-c2cc(C(=O)N[C@@H](C)CO)cc(C(=O)N[C@@H](C)CO)c2)cc1 [Compound 5]', 'IC50', '501 to 1000 nM'),
  ('Cc1ccc(-c2cc(C(=O)NCc3ccc(C)nc3)cc(C(=O)N3C[C@H]4CNC[C@H]4C3)c2)cc1 [Compound 140]', 'IC50', '100 to 500 nM');

Prompt: Item Cc1ccc(CNC(=O)c2cc(-c3ccc(C)c(Cl)c3)cc(S(C)(=O)=O)c2)cn1 [Compound 120] has what recorded IC50?
Completion: > 1000 nM

Prompt: Cc1ccc(-c2cc(C(=O)NCc3ccc(C)nc3)cc(S(=O)(=O)N3CCCC3)c2)cc1 [Compound 105] ?
Completion: < 100 nM

Prompt: Cc1ccc(-c2cc(C(=O)N[C@H](C)c3cnn4c3COCC4)cc(C(=O)N3CCCC3)c2)cc1 [Compound 110] ?
Completion: > 1000 nM
